Target: T1, IFN-γ receptor (IFNGR; IFNGR1 and IFNGR2) on human cells (human, UniProt P15260 18-489; P38484 22-337)
T1 sequence (looked up) 1: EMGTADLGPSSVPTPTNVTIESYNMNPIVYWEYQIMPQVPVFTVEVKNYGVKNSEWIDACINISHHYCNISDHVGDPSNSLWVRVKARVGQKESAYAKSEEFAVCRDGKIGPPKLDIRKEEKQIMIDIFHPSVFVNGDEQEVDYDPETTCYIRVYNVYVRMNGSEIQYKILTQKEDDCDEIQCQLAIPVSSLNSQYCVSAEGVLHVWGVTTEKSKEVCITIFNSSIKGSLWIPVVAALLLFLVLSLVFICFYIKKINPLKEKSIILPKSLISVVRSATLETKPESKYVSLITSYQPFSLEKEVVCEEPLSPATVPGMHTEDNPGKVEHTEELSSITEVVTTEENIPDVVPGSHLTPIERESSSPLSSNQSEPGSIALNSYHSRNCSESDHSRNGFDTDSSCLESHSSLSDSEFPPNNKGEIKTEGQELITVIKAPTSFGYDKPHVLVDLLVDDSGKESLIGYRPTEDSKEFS
T1 sequence (looked up) 2: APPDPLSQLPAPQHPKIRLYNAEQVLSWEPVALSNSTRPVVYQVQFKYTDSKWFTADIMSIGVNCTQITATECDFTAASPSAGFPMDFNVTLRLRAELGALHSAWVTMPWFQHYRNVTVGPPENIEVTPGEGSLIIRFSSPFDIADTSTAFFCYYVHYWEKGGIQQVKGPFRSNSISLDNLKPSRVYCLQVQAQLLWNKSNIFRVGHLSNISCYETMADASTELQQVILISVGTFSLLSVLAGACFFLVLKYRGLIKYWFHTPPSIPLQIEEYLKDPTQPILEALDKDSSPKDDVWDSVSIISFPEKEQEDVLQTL
Assay: cell-based or functional assay
Overview of recorded EC50 in HT-29 cells, MHCI for various binders
Respond with the bare value in ng/mL.

>>> endpointresult("rhIFN-γ-1b (wild-type recombinant human interferon-γ-1b) (ligand, also called wt (rhIFN-γ-1b); WT IFN-γ-1b (Actimmune)) MQDPYVKEAENLKKYFNAGHSDVADNGTLFLGILKNWKEESDRKIMQSQIVSFYFKLFKNFKDDQSIQKSVETIKEDMNVKFFNSNKKKRDDFEKLTNYSVTDLNVQRKAIHELIQVMAELSPAAKTGKRKRSQMLFRGR")
0.079
>>> endpointresult("Compound 1, mono-mPEG-MAL-10K-rhIFN-γ-1b-M135C (ligand, Cys135 thioether-linked to linear mPEG-maleimide of about 10,000 daltons (mPEG-MAL-10K), succinimide ring closed, also called mPEG-MAL-10K-M135C-IFN-γ; M135C 10K linear) MQDPYVKEAENLKKYFNAGHSDVADNGTLFLGILKNWKEESDRKIMQSQIVSFYFKLFKNFKDDQSIQKSVETIKEDMNVKFFNSNKKKRDDFEKLTNYSVTDLNVQRKAIHELIQVMAELSPAAKTGKRKRSQCLFRGR")
0.099
>>> endpointresult("Compound 2, mono-mPEG-MAL-20K-rhIFN-γ-1b-M135C (ligand, Cys135 thioether-linked to linear mPEG-maleimide of about 20,000 daltons (mPEG-MAL-20K), succinimide ring closed, also called mPEG-MAL-20K-M135C-IFN-γ; M135C 20K linear) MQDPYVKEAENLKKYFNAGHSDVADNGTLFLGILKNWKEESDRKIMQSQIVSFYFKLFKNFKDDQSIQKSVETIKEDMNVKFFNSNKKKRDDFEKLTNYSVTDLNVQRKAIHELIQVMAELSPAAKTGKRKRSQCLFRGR")
0.076

Could you now consider this next binder?
The reported value for Compound 3, mono-mPEG2-ru-MAL-20K-rhIFN-γ-1b-M135C (ring closed) (ligand, Cys135 thioether-linked to branched mPEG2-maleimide of about 20,000 daltons (mPEG2-MAL-20K), succinimide ring closed, also called mPEG2-MAL-20K-M135C-IFN-γ; M135C 20K branched (RC)) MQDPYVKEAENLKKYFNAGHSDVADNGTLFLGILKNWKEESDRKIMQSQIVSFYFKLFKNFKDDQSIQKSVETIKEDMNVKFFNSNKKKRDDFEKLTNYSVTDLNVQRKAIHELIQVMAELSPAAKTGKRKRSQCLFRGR in terms of EC50 in HT-29 cells, MHCI is 0.17
